Each recorded value in this set is attributed to ChEMBL document CHEMBL3352280.

- SYSTEM NAME: UniProtKB Q9NP56
- Sequence (Q9NP56 whole entry): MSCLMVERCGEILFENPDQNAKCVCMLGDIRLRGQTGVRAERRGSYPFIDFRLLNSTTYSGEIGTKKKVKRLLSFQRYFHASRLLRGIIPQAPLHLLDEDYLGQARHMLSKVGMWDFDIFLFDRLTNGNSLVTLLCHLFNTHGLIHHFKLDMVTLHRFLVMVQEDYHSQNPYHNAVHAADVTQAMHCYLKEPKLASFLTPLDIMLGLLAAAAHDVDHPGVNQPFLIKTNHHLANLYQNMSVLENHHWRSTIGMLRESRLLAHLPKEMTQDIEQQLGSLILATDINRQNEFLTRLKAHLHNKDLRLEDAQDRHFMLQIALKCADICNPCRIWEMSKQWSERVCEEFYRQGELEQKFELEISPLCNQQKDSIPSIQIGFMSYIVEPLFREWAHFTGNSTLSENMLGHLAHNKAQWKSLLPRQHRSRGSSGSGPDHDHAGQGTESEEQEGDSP
- EXPERIMENT NOTES: Inhibition of human recombinant PDE7B assessed as inhibition of hydrolysis of [3H]cAMP after 20 mins by scintillation proximity assay
pIC50: −log10 of the molar value.
Cut-off 6 on pIC50, inclusive. At or above means TRUE; below means FALSE.

Some solved cases for reference:
| COMPOUND STRING | SYSTEM NAME | ASSIGNED CATEGORY |
| --- | --- | --- |
| O=[N+]([O-])c1ccc(Sc2ccncc2)c(Cl)c1 | UniProtKB Q9NP56 | TRUE |
| O=[N+]([O-])c1ccc(Cl)cc1Sc1ccccc1Br | UniProtKB Q9NP56 | FALSE |
| Nc1ccc(Sc2ccc(Cl)cc2[N+](=O)[O-])cc1 | UniProtKB Q9NP56 | FALSE |

Note: attention shifts to another entry.
Decide: pIC50 of O=[N+]([O-])c1cc(Cl)ccc1Sc1ccncc1 >= 6? FALSE

---

- SYSTEM NAME: High affinity 3',5'-cyclic-AMP phosphodiesterase 7A (Homo sapiens, UniProt Q13946)
- Sequence (Q13946 whole entry): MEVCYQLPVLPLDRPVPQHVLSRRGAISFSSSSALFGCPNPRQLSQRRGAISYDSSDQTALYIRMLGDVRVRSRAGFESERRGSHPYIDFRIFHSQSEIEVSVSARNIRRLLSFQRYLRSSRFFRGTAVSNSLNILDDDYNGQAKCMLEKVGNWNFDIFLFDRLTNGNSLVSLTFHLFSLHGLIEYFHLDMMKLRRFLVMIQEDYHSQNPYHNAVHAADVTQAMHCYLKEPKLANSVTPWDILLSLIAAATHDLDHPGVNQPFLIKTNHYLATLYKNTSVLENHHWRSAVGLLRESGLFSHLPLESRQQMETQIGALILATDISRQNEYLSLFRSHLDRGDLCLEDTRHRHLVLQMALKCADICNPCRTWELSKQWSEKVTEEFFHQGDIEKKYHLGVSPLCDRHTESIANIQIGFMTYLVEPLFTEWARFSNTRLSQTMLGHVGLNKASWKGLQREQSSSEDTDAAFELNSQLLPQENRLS
- EXPERIMENT NOTES: Inhibition of human recombinant PDE7A1 assessed as inhibition of hydrolysis of [3H]cAMP at 10 uM after 20 mins by scintillation proximity assay
ASSAY READOUT: inhibition (%)
# number only, unit % dropped from output

Look over these answered cases.
| COMPOUND STRING | inhibition [%] |
| --- | --- |
| CC(=O)Nc1ccccc1Sc1sccc1[N+](=O)[O-] | 31 |
| O=[N+]([O-])c1cc(Cl)c(Cl)cc1Sc1ccccc1Br | 49 |
| c1ccc(-c2ccc(Sc3ccccn3)cc2)cc1 | 32 |
| Nc1cccc(Sc2ccc(Cl)cc2[N+](=O)[O-])c1 | 68 |

Which inhibition reading was recorded for the compound Cc1cnc(Sc2cccc(N)c2)c([N+](=O)[O-])c1 ? 3

Which measured inhibition value corresponds to O=[N+]([O-])c1ccc(Sc2cccs2)c(Cl)c1 ? 69

Need inhibition, item CC(C)c1ccccc1Sc1ccc([N+](=O)[O-])cc1Cl 17

---

- SYSTEM NAME: cGMP-inhibited 3',5'-cyclic phosphodiesterase 3A (Homo sapiens)
- EXPERIMENT NOTES: Inhibition of human recombinant PDE3A assessed as inhibition of hydrolysis of [3H]cAMP at 10 uM after 20 mins by scintillation proximity assay
inhibition listing for selected molecules.
Expressed in %, but write only the number.

Endpoint output: inhibition of O=[N+]([O-])c1ccc(Sc2ccncc2)c(Cl)c1 . Value? 27

# query: inhibition of entry Nc1ccc(Sc2ccc([N+](=O)[O-])c(Cl)c2)cc1 22

Fill in the blank: the reported inhibition of O=[N+]([O-])c1cc(Cl)ccc1Sc1ccccc1 is ____. 46

# get_value(readout='inhibition', item= Cc1ccc([N+](=O)[O-])cc1S(=O)(=O)N(C)C ) 0.43

Given the molecule CC(=O)Nc1ccccc1Sc1cc(Cl)ccc1[N+](=O)[O-] , what is its reported inhibition? 10

Report inhibition for O=[N+]([O-])c1ccc(Sc2ccccn2)c(Cl)c1 please. 44

---

- SYSTEM NAME: High affinity 3',5'-cyclic-AMP phosphodiesterase 7A (Homo sapiens)
- EXPERIMENT NOTES: Inhibition of human recombinant PDE7A1 assessed as inhibition of hydrolysis of [3H]cAMP after 20 mins by scintillation proximity assay
Recorded measurements of IC50, one per entry
Could you give me the number in µM? Just the number is fine.

| COMPOUND STRING | SYSTEM NAME | NUMERIC RESULT |
| --- | --- | --- |
| O=[N+]([O-])c1cc(Cl)ccc1Sc1ccncc1 | High affinity 3',5'-cyclic-AMP phosphodiesterase 7A (Homo sapiens) | 0.72 |
| Nc1ccc(Sc2ccc([N+](=O)[O-])cc2C(F)(F)F)cc1 | High affinity 3',5'-cyclic-AMP phosphodiesterase 7A (Homo sapiens) | 9.27 |
| Nc1ccc(Sc2cc(Cl)ccc2[N+](=O)[O-])cc1 | High affinity 3',5'-cyclic-AMP phosphodiesterase 7A (Homo sapiens) | 2.2 |
| Nc1ccc(Sc2ccc(Cl)cc2[N+](=O)[O-])cc1 | High affinity 3',5'-cyclic-AMP phosphodiesterase 7A (Homo sapiens) | 0.37 |
| CC(=O)c1ccc(Sc2ccncc2)c([N+](=O)[O-])c1 | High affinity 3',5'-cyclic-AMP phosphodiesterase 7A (Homo sapiens) | 3.8 |
| O=[N+]([O-])c1ccc(Sc2ccncc2)c(Cl)c1 | High affinity 3',5'-cyclic-AMP phosphodiesterase 7A (Homo sapiens) | 0.18 |
| O=[N+]([O-])c1ccc(Cl)cc1Sc1ccncc1 | High affinity 3',5'-cyclic-AMP phosphodiesterase 7A (Homo sapiens) | 1.88 |
| Nc1ccc(Oc2ccc(Cl)cc2[N+](=O)[O-])cc1 | High affinity 3',5'-cyclic-AMP phosphodiesterase 7A (Homo sapiens) | 3.3 |
| O=c1c2ccccc2[nH]c(=S)n1-c1ccccc1 | High affinity 3',5'-cyclic-AMP phosphodiesterase 7A (Homo sapiens) | 4.68 |
| Nc1cccc(Sc2ccc(Cl)cc2[N+](=O)[O-])c1 | High affinity 3',5'-cyclic-AMP phosphodiesterase 7A (Homo sapiens) | 5.69 |

Fill blank: measured IC50 of the compound Nc1ccccc1Sc1ccc(Cl)cc1[N+](=O)[O-] is ____. 5.75

Can you look up the measured IC50 of Nc1ccc(Cl)cc1Sc1ccccc1[N+](=O)[O-] for me? 7.3

Given the compound Nc1ccccc1Sc1cc(Cl)c(Cl)cc1[N+](=O)[O-] , what is its reported IC50? 6.48

---

- SYSTEM NAME: High affinity 3',5'-cyclic-AMP phosphodiesterase 7A (Homo sapiens, UniProt Q13946)
- EXPERIMENT NOTES: Inhibition of human recombinant PDE7A1 assessed as inhibition of hydrolysis of [3H]cAMP at 10 uM after 20 mins by scintillation proximity assay
Field: class. Source value: inhibition. Ranges: lo (below 30%), mid (30% to below 70%), hi (70% or more)

| MOLECULE | ASSIGNED CATEGORY |
| --- | --- |
| O=[N+]([O-])c1ccc(Sc2ccc(Cl)cc2[N+](=O)[O-])cc1 | lo |
| O=[N+]([O-])c1ccc(Cl)cc1Sc1ccncc1 | hi |
| O=[N+]([O-])c1cc(Cl)ccc1SCc1ccccc1Br | mid |
| CC(=O)Nc1ccc(Sc2ccc([N+](=O)[O-])cc2Cl)cc1 | lo |
| c1ccc(Sc2ccncc2)cc1 | mid |

Next item in the queue.
Class (by measured inhibition) for Nc1ccc(Sc2ccc(Cl)cc2[N+](=O)[O-])cc1 hi

---

- SYSTEM NAME: UniProt:Q13946
- EXPERIMENT NOTES: Inhibition of human recombinant PDE7A1 assessed as inhibition of hydrolysis of [3H]cAMP at 10 uM after 20 mins by scintillation proximity assay
We use 30% as the dividing line for inhibition: on or above the line is met, below is not met.

| MOLECULE | ASSIGNED CATEGORY |
| --- | --- |
| CC(=O)Nc1ccc(Oc2ccc(Cl)cc2[N+](=O)[O-])cc1 | not met |
| Cc1cnc(Sc2ccc(-c3ccccc3)cc2)c([N+](=O)[O-])c1 | not met |
| O=[N+]([O-])c1cc(Cl)ccc1Sc1ccc(Br)cc1 | not met |
| O=[N+]([O-])c1cc(Cl)ccc1Sc1ccccn1 | met |
| Nc1ccc(Sc2cc(Cl)ccc2[N+](=O)[O-])cc1 | met |

Given COc1ccc(Sc2ccncc2)cc1 , state whether its inhibition is at least 30%. not met

Quick check, inhibition >= 30%? Nc1ccc(Sc2ccc([N+](=O)[O-])cc2C(F)(F)F)cc1 met

Is the recorded value of inhibition equal to or greater than 30% for this molecule? O=[N+]([O-])c1cc(Cl)ccc1Sc1cccs1 met

API: above_or_equal(metric=inhibition, cutoff=30%) for item COc1ccc(C2CNC(=O)C2)cc1OC1CCCC1 (stereo not drawn) [ROLIPRAM] not met

Can O=[N+]([O-])c1cc(Cl)ccc1Sc1ccncc1 be said to have inhibition at or above 30%? met

Does the reported inhibition for CC(C)c1ccc(Sc2ccc([N+](=O)[O-])cc2Cl)cc1 fall at or above the 30% mark? not met

Please tell me: is the molecule O=c1c2ccccc2[nH]c(=S)n1-c1ccccc1 at or over 30% in terms of inhibition? met

hey, is inhibition for this one >= 30%? O=[N+]([O-])c1ccc(Sc2ccc(Br)cc2)c(Cl)c1 not met

Given the entry Nc1cccc(Sc2ccc([N+](=O)[O-])cc2Cl)c1 , answer whether its inhibition meets or surpasses 30%. met

Say whether Nc1ccccc1Sc1ccc(Cl)cc1[N+](=O)[O-] shows inhibition of 30% or more. met

Given Nc1ccc(Oc2ccc(Cl)cc2[N+](=O)[O-])cc1 , state whether its inhibition is at least 30%. met

Reported inhibition reaches at least 30% for O=[N+]([O-])c1ccc(Sc2ccccc2)c(Cl)c1 ? met

Determine whether measured inhibition meets or exceeds 30% for Nc1ccc(Sc2ccc(F)cc2[N+](=O)[O-])cc1 met

Would you say O=[N+]([O-])c1ccc(SCc2ccccc2Br)c(Cl)c1 shows inhibition at minimum 30%? met

Is reported inhibition greater than or equal to 30% here: CC(=O)NNc1ccccc1Sc1ccccc1Br not met

Could you tell me if the measured inhibition of CC(=O)Nc1ccc(Oc2ccc([N+](=O)[O-])cc2Cl)cc1 reaches 30% or more? not met
